Each entry below carries its recorded dH.
target: T1, GII.10 P domain (Vietnam026) (norovirus GII.10 (Vietnam026)); test: ITC; conditions: both partners purified
T1 construct: source: E. coli, purified
Numbers only here, please. The scale is kcal/mol.

{"columns": ["Binder", "dH / kcal/mol"],
 "data": [
  ["Nano-32 (VHH) VHH: QVQLQESGGGLVQPGGSLRLSCAASGFTLGYYPIGWFRQAPGKGLEGVSCISGSGGSANYAASVKGRFTISRDNAKNTVYLQMNSLKPEDTAIYYCAADLSSLTTVQAMCVIPRPGFSAKAYDYWGLGTQVTVSS", 5]
]}

Sample Nano-26 (VHH, also called N26; source: E. coli WK6 (pHEN6C vector), purified) VHH: QVQLQESGGGLVQPGGSLRLSCTAPRIIFFMYDVGWYRQAPEKQRELVAQINSDVSTKYADSVKGRFTISRDNAKRTVYLQMNDLKPEDAAVYYCNVRRASADYWGQGTQVTVSS — what was its dH? -10
